The reported measurements were obtained from ChEMBL document CHEMBL3588795.

System under test: Metabotropic glutamate receptor 1 (Homo sapiens)
Sequence (Q13255 whole entry): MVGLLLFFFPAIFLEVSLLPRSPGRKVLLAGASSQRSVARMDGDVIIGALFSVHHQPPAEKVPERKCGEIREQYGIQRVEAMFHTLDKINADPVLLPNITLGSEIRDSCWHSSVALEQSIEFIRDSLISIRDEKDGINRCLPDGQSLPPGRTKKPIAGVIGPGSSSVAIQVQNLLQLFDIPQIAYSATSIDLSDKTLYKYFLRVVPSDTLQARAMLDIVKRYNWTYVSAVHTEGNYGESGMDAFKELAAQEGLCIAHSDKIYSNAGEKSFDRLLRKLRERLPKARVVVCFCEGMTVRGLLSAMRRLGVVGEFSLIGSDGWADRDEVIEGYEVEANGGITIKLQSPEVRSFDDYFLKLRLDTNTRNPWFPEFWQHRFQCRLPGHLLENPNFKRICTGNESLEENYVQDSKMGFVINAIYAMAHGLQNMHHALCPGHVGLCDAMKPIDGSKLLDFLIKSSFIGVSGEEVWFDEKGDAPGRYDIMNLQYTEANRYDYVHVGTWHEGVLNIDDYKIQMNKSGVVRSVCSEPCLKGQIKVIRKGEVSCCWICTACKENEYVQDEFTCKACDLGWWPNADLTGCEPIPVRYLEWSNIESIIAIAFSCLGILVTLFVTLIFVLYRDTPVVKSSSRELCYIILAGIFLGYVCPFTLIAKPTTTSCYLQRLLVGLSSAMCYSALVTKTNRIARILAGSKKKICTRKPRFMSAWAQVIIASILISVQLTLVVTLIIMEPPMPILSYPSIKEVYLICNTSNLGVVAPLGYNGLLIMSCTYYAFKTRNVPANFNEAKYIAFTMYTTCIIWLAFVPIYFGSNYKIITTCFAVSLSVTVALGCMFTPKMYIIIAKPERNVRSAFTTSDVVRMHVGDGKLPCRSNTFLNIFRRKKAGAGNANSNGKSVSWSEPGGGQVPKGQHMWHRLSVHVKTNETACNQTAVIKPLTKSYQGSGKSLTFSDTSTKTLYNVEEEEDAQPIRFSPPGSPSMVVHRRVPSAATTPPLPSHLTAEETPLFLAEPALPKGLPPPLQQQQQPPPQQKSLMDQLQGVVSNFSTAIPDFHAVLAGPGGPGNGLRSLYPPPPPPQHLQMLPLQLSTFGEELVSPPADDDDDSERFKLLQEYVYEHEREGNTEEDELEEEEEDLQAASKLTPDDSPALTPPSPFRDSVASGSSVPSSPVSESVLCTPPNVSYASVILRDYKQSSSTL
Experiment notes: Negative allosteric modulation of human mGluR1alpha expressed in syrian hamster AV-12 cells assessed as inhibition of quisqualate-induced phosphoinositide hydrolysis
pIC50: −log10 of the molar value.
Property name: pIC50

Cc1cc(C(=O)O)ccc1[C@H](N)C(=O)O = 5.10
